Tested on: Trypanosoma brucei brucei
Assay: Antitrypanosomal activity against bloodstream form of Trypanosoma brucei brucei 90-13 reduction in parasite growth after 72 hrs by resazurin dye based fluorescence assay
Format: functional, organism-based
Conditions: 90-13, 72 h
PROPERTY MEASURED: IC50 (µM)

Past entries and their recorded results:
CCOC(=O)c1ccc(NC(=O)CC2S/C(=N\N=C\c3c(-c4ccccc4)[nH]c4ccccc34)NC2=O)cc1 (centres undefined) : 6.86
CC(=O)OCCC1S/C(=N\N=C\c2c(-c3ccccc3)[nH]c3ccccc23)NC1=O (centres undefined) : 0.06

(a) O=C(CC1S/C(=N\N=C\c2c(-c3ccccc3)[nH]c3ccccc23)NC1=O)Nc1ccc(Cl)cc1 (centres undefined)
(b) O=C(O)CCNC(=O)CC1S/C(=N\N=C\c2c(-c3ccccc3)[nH]c3ccccc23)NC1=O (centres undefined)
# return whichever of a and b has the smaller IC50 Write down the label attached to your selection. a

====

Each item that follows carries a reported LD50.
Assay: Acute toxicity in ip dosed mouse by Litchfield-Wilcoxon method
Assay type: organism-based
Conditions: in vivo
Give the quantity in mg/kg, number only.

O=C(O)CC1S/C(=N\N=C\c2c(-c3ccc(Cl)cc3)[nH]c3ccccc23)NC1=O (stereo not drawn) : 290
O=C(O)CC1S/C(=N\N=C\c2c(-c3ccccc3)[nH]c3ccccc23)NC1=O (stereo not drawn) : 240
O=C1CS/C(=N\N=C\c2c(-c3ccc(Cl)cc3)[nH]c3ccccc23)N1 : 270
CC1S/C(=N\N=C\c2c(-c3ccccc3)[nH]c3ccccc23)NC1=O (stereo not drawn) : 220
CC1S/C(=N\N=C\c2c(-c3ccc(Cl)cc3)[nH]c3ccccc23)NC1=O (stereo not drawn) : 310
CCC1S/C(=N\N=C\c2c(-c3ccccc3)[nH]c3ccccc23)NC1=O (stereo not drawn) : 220

get_value(item= CC(=O)OCCC1S/C(=N\N=C\c2c(-c3ccccc3)[nH]c3ccccc23)NC1=O (stereo not drawn) , readout=LD50) returns 200

get_value(item= CCC1S/C(=N\N=C\c2c(-c3ccc(Cl)cc3)[nH]c3ccccc23)N(c2ccc(O)cc2)C1=O (stereo not drawn) , readout=LD50) returns 330

====

Each item that follows carries a reported selectivity ratio.
Test: Selectivity index, ratio of IC50 for human AB943 cells to IC50 of bloodstream form of Trypanosoma brucei gambiense Feo
Assay type: toxicity
Conditions: read-out: Ratio IC50
Answer field: number only, no words.

Past entries and their recorded results:
O=C1N/C(=N/N=C/c2c(-c3ccc(Cl)cc3)[nH]c3ccccc23)SC1CCO (stereo not given) : 7
CCC1S/C(=N\N=C\c2c(-c3ccc(Cl)cc3)[nH]c3ccccc23)N(c2ccc(O)cc2)C1=O (stereo not given) : 100
C=CCSc1nn2c(/C=N/N=c3/[nH]c(C)c(C(=O)OCC)s3)c(-c3ccccc3)nc2s1 : 7
CCc1nn2c(/C=N/N=C3\SC(CCOC(C)=O)C(=O)N3c3ccc(O)cc3)c(-c3ccc(Br)cc3)nc2s1 (stereo not given) : 11

Proceeding to the next molecule to report its selectivity ratio.
get_value(item= CC1S/C(=N\N=C\c2c(-c3ccc(Cl)cc3)[nH]c3ccccc23)NC1=O (stereo not given) , readout=selectivity ratio) returns 2

====

Test system: Trypanosoma brucei brucei
Test: Antitrypanosomal activity against bloodstream form of Trypanosoma brucei brucei 90-13 reduction in parasite growth after 72 hrs by resazurin dye based fluorescence assay
Type: functional, organism-based
Details: 90-13, 72 h
pIC50: −log10 of the molar value.
PROPERTY MEASURED: pIC50

Past entries and their recorded results:
CCC1S/C(=N\N=C\c2c(-c3ccccc3)[nH]c3ccccc23)NC1=O (centres undefined) : 7.52
O=C(O)CCCCCNC(=O)CC1S/C(=N\N=C\c2c(-c3ccccc3)[nH]c3ccccc23)NC1=O (centres undefined) : 4.85
O=C(CC1S/C(=N\N=C\c2c(-c3ccccc3)[nH]c3ccccc23)NC1=O)c1ccc(F)cc1 (centres undefined) : 4.97
O=C(CC1S/C(=N\N=C\c2c(-c3ccccc3)[nH]c3ccccc23)NC1=O)c1ccccc1 (centres undefined) : 5.11

(I) O=C(CC1S/C(=N\N=C\c2c(-c3ccccc3)[nH]c3ccccc23)NC1=O)Nc1ccc(Br)cc1 (centres undefined)
(II) O=C(CC1S/C(=N\N=C\c2c(-c3ccccc3)[nH]c3ccccc23)NC1=O)c1ccc2c(c1)CCCC2 (centres undefined)
(III) O=C1N/C(=N/N=C/c2c(-c3ccccc3)[nH]c3ccccc23)SC1CCO (centres undefined)
(IV) N=C(N)c1ccc(OCCCCCOc2ccc(C(=N)N)cc2)cc1
(V) CC1CS(=O)(=O)CCN1/N=C/c1ccc([N+](=O)[O-])o1 (centres undefined)
I would appreciate it if you could sort these 5 compounds by pIC50, starting from the smallest number. // format: requested-order list of labels II, I, V, III, IV
(II: 4.88, I: 5.10, V: 5.62, III: 6.77, IV: 8.85)
